assayed_system: SIK3 (Homo sapiens, UniProt Q9Y2K2)
Sequence (Q9Y2K2 whole entry): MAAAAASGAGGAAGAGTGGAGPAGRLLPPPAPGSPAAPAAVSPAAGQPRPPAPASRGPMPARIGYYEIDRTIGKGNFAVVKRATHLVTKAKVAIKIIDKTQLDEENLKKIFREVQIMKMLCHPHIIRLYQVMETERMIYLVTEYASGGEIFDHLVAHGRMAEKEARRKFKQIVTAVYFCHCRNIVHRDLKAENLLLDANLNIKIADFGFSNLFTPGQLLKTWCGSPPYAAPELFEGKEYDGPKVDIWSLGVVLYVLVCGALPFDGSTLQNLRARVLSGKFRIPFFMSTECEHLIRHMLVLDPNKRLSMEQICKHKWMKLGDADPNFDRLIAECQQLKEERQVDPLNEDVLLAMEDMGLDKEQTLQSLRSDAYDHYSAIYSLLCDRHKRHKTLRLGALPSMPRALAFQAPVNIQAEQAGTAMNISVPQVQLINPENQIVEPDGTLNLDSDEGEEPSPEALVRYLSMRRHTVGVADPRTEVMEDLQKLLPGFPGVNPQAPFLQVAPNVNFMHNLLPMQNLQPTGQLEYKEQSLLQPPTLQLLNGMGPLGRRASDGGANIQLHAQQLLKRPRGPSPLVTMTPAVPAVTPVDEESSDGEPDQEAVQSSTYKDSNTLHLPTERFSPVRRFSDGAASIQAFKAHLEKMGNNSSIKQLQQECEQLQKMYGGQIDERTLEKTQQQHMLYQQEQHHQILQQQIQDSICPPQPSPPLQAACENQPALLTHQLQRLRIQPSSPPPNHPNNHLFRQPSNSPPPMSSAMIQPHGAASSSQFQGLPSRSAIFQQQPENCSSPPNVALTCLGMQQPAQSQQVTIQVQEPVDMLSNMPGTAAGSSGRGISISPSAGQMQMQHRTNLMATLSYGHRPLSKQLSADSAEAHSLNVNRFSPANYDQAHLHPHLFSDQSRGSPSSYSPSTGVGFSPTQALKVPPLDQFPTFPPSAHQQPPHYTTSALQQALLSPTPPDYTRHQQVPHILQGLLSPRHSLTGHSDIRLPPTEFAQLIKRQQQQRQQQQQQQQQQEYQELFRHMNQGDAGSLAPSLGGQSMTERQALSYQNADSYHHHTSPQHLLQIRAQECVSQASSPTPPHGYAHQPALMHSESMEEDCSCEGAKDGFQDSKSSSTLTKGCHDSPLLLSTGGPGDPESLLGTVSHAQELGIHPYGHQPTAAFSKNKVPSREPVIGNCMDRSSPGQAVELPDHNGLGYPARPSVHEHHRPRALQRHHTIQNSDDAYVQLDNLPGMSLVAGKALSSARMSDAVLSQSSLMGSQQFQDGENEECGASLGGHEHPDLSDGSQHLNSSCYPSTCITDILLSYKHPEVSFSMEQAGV
Kindly supply the reported pIC50 values for the records listed here.
Give bare numbers, as −log10 of the molar value.

compound="CC(O)c1ccc(-n2cnc3cc(OCCN4CCOCC4)ccc32)nc1-n1ccc(C(F)(F)F)n1 (stereo not shown)" assayed_system="SIK3 (Homo sapiens, UniProt Q9Y2K2)" measured_result=6.75
compound=COc1cc2ncn(-c3ccc([C@H](C)O)c(-c4ccccc4C(N)=O)n3)c2cc1OC assayed_system="SIK3 (Homo sapiens, UniProt Q9Y2K2)" measured_result=5.13
compound=COc1cc2ncn(-c3ccc(CO)c(N4CCCC4=O)n3)c2cc1OC assayed_system="SIK3 (Homo sapiens, UniProt Q9Y2K2)" measured_result=5.71
compound="Cc1ccc(Nc2ccc3c(c2)ncn3-c2ccc(C(C)O)c(-c3cn(CC(F)(F)F)nc3C)n2)nn1 (stereo not shown)" assayed_system="SIK3 (Homo sapiens, UniProt Q9Y2K2)" measured_result=8.89
compound=Cc1ccc(Nc2ccc3ncn(-c4ccc(CO)c(-n5nc(C#N)cc5C)n4)c3c2)nn1 assayed_system="SIK3 (Homo sapiens, UniProt Q9Y2K2)" measured_result=5.99

// each listed compound needs a value for pIC50
1. Cc1ccc(Nc2cc3ncn(-c4ccc(C(C)O)c(-n5nc(C#N)cc5C)n4)c3cc2OC2CCNC2)nn1 (stereo not shown)
2. COc1cc2ncn(-c3ccc([C@H](C)O)c(-c4cccc(C#N)c4)n3)c2cc1OC
3. COc1cc2ncn(-c3ccc(CO)c(N4CCCCC4)n3)c2cc1OC
4. COc1cc2ncn(-c3ccc(CO)c(N4CCCC4)n3)c2cc1OC
5. Cc1ccc(Nc2ccc3c(c2)ncn3-c2ccc(C(C)O)c(OC3CNCC3(F)F)n2)nn1 (stereo not shown)
6. Cc1ccc(Nc2ccc3c(c2)ncn3-c2ccc([C@@H](C)O)c(-c3cn(CC(F)(F)F)nc3C)n2)nn1
7. Cc1ccc(Nc2ccc3c(c2)ncn3-c2ccc(C(C)O)c(-n3nc(C(F)F)cc3C#N)n2)nn1 (stereo not shown)

8.40
7.65
6.15
6.12
8.26
9.40
9.40

// each listed compound needs a value for pIC50
1. Cc1ccc(Nc2cc3ncn(-c4ccc(C(C)O)c(-c5cc(OC(F)F)ncc5C)n4)c3cc2F)nn1 (stereo not shown)
2. CCn1nc(C(F)(F)F)cc1-c1nc(-n2cnc3cc(Nc4ccc(C)nn4)ccc32)ccc1C(C)O (stereo not shown)
3. Cc1cc(C#N)nn1-c1nc(-n2cnc3cc(N4CCC[C@H]4C#N)ccc32)ccc1C(C)O (stereo partly shown)
4. CNC(=O)c1cc(C)n(-c2nc(-n3cnc4cc(Nc5ccc(C)nn5)ccc43)ccc2C(C)O)n1 (stereo not shown)

1: 8.85; 2: 8.32; 3: 7.79; 4: 7.79
